measurement.target: SMARCA4 (Homo sapiens (Human), UniProt P51532)
Sequence (P51532 whole entry): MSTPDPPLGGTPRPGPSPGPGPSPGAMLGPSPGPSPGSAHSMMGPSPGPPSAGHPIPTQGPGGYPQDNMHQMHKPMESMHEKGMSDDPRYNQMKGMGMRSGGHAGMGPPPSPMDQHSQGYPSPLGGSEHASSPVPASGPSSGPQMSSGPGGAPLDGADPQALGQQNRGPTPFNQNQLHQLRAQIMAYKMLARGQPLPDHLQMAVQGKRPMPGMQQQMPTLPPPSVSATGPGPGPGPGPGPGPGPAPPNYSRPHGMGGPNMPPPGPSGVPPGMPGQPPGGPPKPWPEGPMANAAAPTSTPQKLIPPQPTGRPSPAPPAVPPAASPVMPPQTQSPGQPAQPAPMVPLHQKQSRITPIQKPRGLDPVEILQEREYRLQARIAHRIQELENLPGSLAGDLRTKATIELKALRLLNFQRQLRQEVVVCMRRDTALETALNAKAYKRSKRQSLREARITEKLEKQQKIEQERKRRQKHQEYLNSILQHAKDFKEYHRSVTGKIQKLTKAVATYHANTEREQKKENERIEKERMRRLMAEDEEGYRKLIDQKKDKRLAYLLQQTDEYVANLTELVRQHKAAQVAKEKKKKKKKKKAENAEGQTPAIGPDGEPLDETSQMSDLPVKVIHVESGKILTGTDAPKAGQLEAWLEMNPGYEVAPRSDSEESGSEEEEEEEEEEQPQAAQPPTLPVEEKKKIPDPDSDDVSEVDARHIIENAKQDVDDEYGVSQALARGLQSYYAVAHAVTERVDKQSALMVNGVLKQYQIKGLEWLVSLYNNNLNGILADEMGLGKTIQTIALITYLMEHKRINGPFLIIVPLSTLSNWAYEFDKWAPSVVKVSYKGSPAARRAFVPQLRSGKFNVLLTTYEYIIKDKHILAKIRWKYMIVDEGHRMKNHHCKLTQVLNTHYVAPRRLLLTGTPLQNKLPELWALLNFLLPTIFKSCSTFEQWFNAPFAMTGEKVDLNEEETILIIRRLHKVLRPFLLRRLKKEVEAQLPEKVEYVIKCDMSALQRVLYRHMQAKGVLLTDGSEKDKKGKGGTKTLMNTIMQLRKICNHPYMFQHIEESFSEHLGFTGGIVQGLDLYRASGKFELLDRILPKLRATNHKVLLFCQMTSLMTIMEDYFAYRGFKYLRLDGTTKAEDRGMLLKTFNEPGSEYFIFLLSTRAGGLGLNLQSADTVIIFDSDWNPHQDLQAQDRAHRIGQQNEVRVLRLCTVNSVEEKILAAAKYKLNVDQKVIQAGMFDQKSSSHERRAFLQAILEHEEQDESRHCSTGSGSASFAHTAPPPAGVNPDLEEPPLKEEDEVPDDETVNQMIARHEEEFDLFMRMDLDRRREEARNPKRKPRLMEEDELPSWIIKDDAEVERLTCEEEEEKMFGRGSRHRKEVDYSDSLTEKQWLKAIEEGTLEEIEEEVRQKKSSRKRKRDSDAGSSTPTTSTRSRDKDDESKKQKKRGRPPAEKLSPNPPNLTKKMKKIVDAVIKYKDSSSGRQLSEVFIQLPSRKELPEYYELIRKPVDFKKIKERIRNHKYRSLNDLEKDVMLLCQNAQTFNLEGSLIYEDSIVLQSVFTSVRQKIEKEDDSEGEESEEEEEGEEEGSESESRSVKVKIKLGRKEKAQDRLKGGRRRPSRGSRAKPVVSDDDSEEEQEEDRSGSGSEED
assay.overview: SMARCA4 HiBiT degradation assay in HeLa cells
Format: cell-based
assay.setup: HeLa, 18 hours, read-out: Dmax % (SM4-HeLa) maximum SMARCA4 degradation within the concentrations tested
Task for the reader: assign each of the following molecules its reported Dmax.

>>> observed_result("Cc1ncsc1-c1ccc([C@H](C)NC(=O)[C@@H]2C[C@@H](O)CN2C(=O)[C@@H](c2cc(OCCN3CCC(N4CCN5c6cc(-c7ccccc7O)nnc6NCC5(C)C4)C3)no2)C(C)C)cc1 (stereo partly drawn)")
"> 75%"
>>> observed_result("Cc1ncsc1-c1ccc([C@H](C)NC(=O)[C@@H]2C[C@@H](O)CN2C(=O)C(c2cc(O[C@H](C)C(=O)N3CCC(N4CCN5c6cc(-c7ccccc7O)nnc6NC[C@H]5C4)C3)no2)C(C)C)cc1 (stereo partly drawn)")
"≤ 50%"
>>> observed_result("Cc1ncsc1-c1ccc([C@H](C)NC(=O)[C@@H]2C[C@@H](O)CN2C(=O)[C@@H](c2cc(OCCN3CCC(N4CCC(N5CCN6c7cc(-c8ccccc8O)nnc7NC[C@H]6C5)C4)CC3)no2)C(C)C)cc1 (single isomer, unassigned)")
"> 75%"

Report Dmax for every entry below.
1. Cc1ncsc1-c1ccc([C@H](C)NC(=O)[C@@H]2C[C@@H](O)CN2C(=O)[C@@H](c2cc(OCCN3CCC(N4CCN5c6cc(-c7ccccc7O)nnc6NC(C)C5C4)CC3)no2)C(C)C)cc1 (stereo partly drawn)
2. Cc1ncsc1-c1ccc([C@H](C)NC(=O)[C@@H]2C[C@@H](O)CN2C(=O)[C@@H](c2cc(OCCN3CC=C(CN4CCN5c6cc(-c7ccccc7O)nnc6NC[C@H]5C4)CC3)no2)C(C)C)cc1

1: > 75%; 2: > 75%

----------
measurement.target: SMARCA4 (Homo sapiens (Human), UniProt P51532)
assay.overview: SMARCA4 HiBiT degradation assay in HeLa cells
Assay type: cell-based
assay.setup: HeLa, 18 hours, read-out: Dmax % (SM4-HeLa) maximum SMARCA4 degradation within the concentrations tested
measured.quantity: Dmax

Reference set (3 entries):
>>> observed_result("Cc1ncsc1-c1ccc([C@H](C)NC(=O)[C@@H]2C[C@@H](O)CN2C(=O)C(c2cc(CCN(C)CCN3CCN4c5cc(-c6ccccc6O)nnc5NC[C@H]4C3)no2)C(C)C)cc1 (some centres unmarked) [Example 34]")
"≤ 50%"
>>> observed_result("CCC(CN1CCC(N2CCN3c4cc(-c5ccccc5O)nnc4NC[C@H]3C2)CC1)Oc1cc([C@H](C(=O)N2C[C@H](O)C[C@H]2C(=O)N[C@@H](C)c2ccc(-c3scnc3C)cc2)C(C)C)on1 (some centres unmarked) [Example 60]")
"50 to 75%"
>>> observed_result("Cc1ncsc1-c1ccc([C@H](C)NC(=O)[C@@H]2C[C@@H](O)CN2C(=O)[C@@H](c2cc(OCCN3CCC(CN4C[C@@H]5CNc6nnc(-c7ccccc7O)cc6N5C[C@@H]4C)CC3)no2)C(C)C)cc1 [Example 101]")
"> 75%"

Report Dmax for every entry below.
1. Cc1ncsc1-c1ccc([C@H](CO)NC(=O)[C@@H]2C[C@@H](O)CN2C(=O)C(c2cc(OCCN3CCC(CN4CCN5c6cc(-c7ccccc7O)nnc6NC[C@H]5C4)CC3)no2)C(C)C)cc1 (some centres unmarked) [Example 46]
2. Cc1ncsc1-c1ccc([C@H](C)NC(=O)[C@@H]2C[C@@H](O)CN2C(=O)[C@@H](c2cc(OCCN(C)C3CCC(N4CCN5c6cc(-c7ccccc7O)nnc6NC[C@H]5C4)CC3)no2)C(C)C)cc1 (some centres unmarked) [Example 43]

["> 75%", "> 75%"]
